Catalogue of compounds with associated Uptake of tauro-nor-THCA-24-DBD (% of control)
- measuredTarget: human NTCP (Homo sapiens, UniProt Q14973)
- Sequence (Q14973 whole entry): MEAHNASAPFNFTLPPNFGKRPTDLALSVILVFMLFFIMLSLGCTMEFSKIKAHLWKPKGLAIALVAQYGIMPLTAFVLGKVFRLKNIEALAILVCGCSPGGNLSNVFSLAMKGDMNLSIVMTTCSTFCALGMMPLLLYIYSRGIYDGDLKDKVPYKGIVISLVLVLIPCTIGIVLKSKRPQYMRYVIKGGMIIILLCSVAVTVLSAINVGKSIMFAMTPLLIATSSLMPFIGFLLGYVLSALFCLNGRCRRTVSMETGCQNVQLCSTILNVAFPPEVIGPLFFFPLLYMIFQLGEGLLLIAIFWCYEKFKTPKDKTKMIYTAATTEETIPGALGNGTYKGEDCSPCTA
- experimentalProtocol: Inhibition of tauro-nor-THCA-24-DBD uptake in NTCP-transfected CHO cells
- Type: cell-based
- Parameters: expressed in transfected cells; host or cells: CHO cells, geneticin selection, expression induced with sodium butyrate
- conditionLabel: compound at equimolar concentration with 3 µM tauro-nor-THCA-24-DBD, triplicate
- Experimental: The cells were placed in an incubator at 37 °C and 5% CO2. […] Furthermore, to analyse the uptake experiments in NTCP-transfected CHO cells, cells were rinsed twice with 200 µL-well^-1 uptake buffer (HBSS containing 10 mM HEPES, pH 7.4) at 37 °C and subsequently preincubated with 100 µL uptake buffer for 15 minutes. […] Protein content of each well was determined with the BCA Protein assay (Thermo Fisher Scientific, Waltham, MA) performed according to the manufacturer's protocol. […]
attributeMeasured: Uptake of tauro-nor-THCA-24-DBD (% of control)

- compound: "O=C(OC[C@H]1O[C@@H](OC(=O)c2cc(O)c(O)c(OC(=O)c3cc(O)c(O)c(O)c3)c2)[C@H](OC(=O)c2cc(O)c(O)c(OC(=O)c3cc(O)c(O)c(O)c3)c2)[C@@H](OC(=O)c2cc(O)c(O)c(OC(=O)c3cc(O)c(O)c(O)c3)c2)[C@@H]1OC(=O)c1cc(O)c(O)c(OC(=O)c2cc(O)c(O)c(O)c2)c1)c1cc(O)c(O)c(OC(=O)c2cc(O)c(O)c(O)c2)c1 [Tannic acid]"
  val: "8.31 % of control"
- compound: "CCOc1nc2cccc(C(=O)OC(C)OC(=O)OC3CCCCC3)c2n1Cc1ccc(-c2ccccc2-c2nnn[nH]2)cc1 (stereo not shown) [Candesartan cilextil]"
  val: "19.76 % of control"
- compound: "O=C(Nc1ccc([N+](=O)[O-])cc1Cl)c1cc(Cl)ccc1O [Niclosamide]"
  val: "35.45 % of control"
- compound: "O=C(O)c1cc([N+](=O)[O-])ccc1NCCCc1ccccc1 [5-nitro-2-phenylpropylaminobenzoic acid]"
  val: "49.55 % of control"
- compound: "Cc1cc(O)c(C=O)c(O)c1C(=O)O [Haematommic acid]"
  val: "49.33 % of control"
- compound: "O=C(O)c1ccccc1Nc1cccc(C(F)(F)F)c1 [Flufenamic acid]"
  val: "44.12 % of control"
- compound: "Oc1c(Cl)cc(Cl)c(Cl)c1Cc1c(O)c(Cl)cc(Cl)c1Cl [Hexachlorophene]"
  val: "23.92 % of control"

---

- measuredTarget: human NTCP (Homo sapiens)
- experimentalProtocol: Inhibition of tauro-nor-THCA-24-DBD uptake in NTCP-transfected CHO cells
- Assay type: cell-based
- Design: expressed in transfected cells; host or cells: CHO cells, geneticin selection, expression induced with sodium butyrate
- conditionLabel: compound at equimolar concentration with 3 µM tauro-nor-THCA-24-DBD, triplicate
- Procedure: The cells were placed in an incubator at 37 °C and 5% CO2. […] Furthermore, to analyse the uptake experiments in NTCP-transfected CHO cells, cells were rinsed twice with 200 µL-well^-1 uptake buffer (HBSS containing 10 mM HEPES, pH 7.4) at 37 °C and subsequently preincubated with 100 µL uptake buffer for 15 minutes. […] Protein content of each well was determined with the BCA Protein assay (Thermo Fisher Scientific, Waltham, MA) performed according to the manufacturer's protocol. […]
Structures can show the parent of a compound that is named as a salt.
Catalogue of molecules with associated Uptake of tauro-nor-THCA-24-DBD (% of control)
attributeMeasured: Uptake of tauro-nor-THCA-24-DBD (% of control)

- molecule: "Oc1c(Cl)c(Cl)c(Cl)c(Cl)c1Cl [Pentachlorophenol]"
  val: "46.29 % of control"
- molecule: "COc1cc2c3cc1Oc1cc(ccc1O)C[C@@H]1c4c(cc(OC)c(O)c4Oc4ccc(cc4)C[C@@H]3N(C)CC2)CC[N+]1(C)C.Cl.O.O.O.O.O.[Cl-] [Tubocurarine chloride]"
  val: "49.76 % of control"
- molecule: "COC(=O)C1=C(C)NC(C)=C(C(=O)OCCN(C)Cc2ccccc2)C1c1cccc([N+](=O)[O-])c1 (stereo not shown) [Nicardipine hydrochloride]"
  val: "42.69 % of control"
- molecule: "CCCCCc1c2c(cc(O)c1C(=O)O)OC(=O)c1c(cc(OC)cc1C(=O)CCCC)O2 [Lobaric acid]"
  val: "9.70 % of control"
- molecule: "CC/C(=C(/CC)c1ccc(O)cc1)c1ccc(O)cc1 [Diethylstilbestrol]"
  val: "48.51 % of control"
- molecule: "C=CC(C)(O)CCC=C(C)C (stereo not drawn) [(+)- Linalool]"
  val: "46.35 % of control"
- molecule: "COc1cc2c(cc1OC)[C@@H]1C(=O)c3ccc4c(c3O[C@@H]1CO2)C[C@H](C(C)C)O4 [Dihydrorotenone]"
  val: "37.31 % of control"
